Where do these numbers come from? They come from PubChem BioAssay (NCI).

# System: SNB-19 CNS
# Experiment description: NCI tumour cell line growth inhibition, 48 h
Recorded TGI, one value per entry.

>  <Molecule>
COc1ccc(NC(=O)c2ccc(NC3=C(Cl)C(=O)N(Cc4ccccc4)C3=O)cc2)cc1

>  <Target or system>
SNB-19 CNS

>  <TGI>
40.4 µM

$$$$
>  <Molecule>
CCCCC/C=C1/CC(CO)(COC(=O)CC(C(C)C)C(C)C)OC1=O (stereo unspecified)

>  <Target or system>
SNB-19 CNS

>  <TGI>
21.2 µM

$$$$
>  <Molecule>
CCN(CC)CCCCCCCCNc1c2ccc(Cl)cc2nc2ccc(OC)cc12

>  <Target or system>
SNB-19 CNS

>  <TGI>
4.63 µM

$$$$
>  <Molecule>
COc1ccc(C(=O)CC2(O)C(=O)Nc3c(Cl)ccc(Cl)c32)cc1 (stereo unspecified)

>  <Target or system>
SNB-19 CNS

>  <TGI>
> 100 µM

$$$$
>  <Molecule>
COc1ccc(-c2oc3ccc(C)cc3c(=O)c2O)cc1

>  <Target or system>
SNB-19 CNS

>  <TGI>
> 100 µM

$$$$
>  <Molecule>
CSC1=Nc2ccccc2-c2nc(-c3ccccc3)cc(-c3ccccc3)c2C1

>  <Target or system>
SNB-19 CNS

>  <TGI>
> 100 µM

$$$$
>  <Molecule>
CCOC(=O)C(=[N+]=[N-])C(=O)C[N+]12CCN(CC1)CC2

>  <Target or system>
SNB-19 CNS

>  <TGI>
> 100 µM

$$$$
>  <Molecule>
CC(C)OC(=O)c1ccc(NCC2=CC(=O)C=CC2=O)cc1Cl

>  <Target or system>
SNB-19 CNS

>  <TGI>
44.2 µM

$$$$
>  <Molecule>
CN(C)N=Nc1ccc([N+](=O)[O-])cc1C(N)=O

>  <Target or system>
SNB-19 CNS

>  <TGI>
> 100 µM

$$$$
>  <Molecule>
CO/C(=N\N=C\c1ccc(Cl)cc1)c1ccncc1

>  <Target or system>
SNB-19 CNS

>  <TGI>
> 100 µM

$$$$
>  <Molecule>
CC(=O)Nc1ccc(S(=O)(=O)Nc2nnc(S(N)(=O)=O)s2)cc1

>  <Target or system>
SNB-19 CNS

>  <TGI>
> 100 µM

$$$$
>  <Molecule>
C=CCCc1cc(OC)ccc1CN(C)C(C)(C)CO

>  <Target or system>
SNB-19 CNS

>  <TGI>
> 100 µM

$$$$
>  <Molecule>
Cc1cc(Cl)n2c(nc3ccccc32)c1C#N

>  <Target or system>
SNB-19 CNS

>  <TGI>
15.6 µM

$$$$
>  <Molecule>
COC(=O)c1c(OC(C)=O)ccc2c1c1c(OC(C)=O)c3ccccc3c(OC(C)=O)c1n2Cc1cc(OC)cc(OC)c1

>  <Target or system>
SNB-19 CNS

>  <TGI>
> 100 µM

$$$$
>  <Molecule>
CN(C)CCCn1c(Cc2ccccc2)nc2cc(C(F)(F)F)ccc21

>  <Target or system>
SNB-19 CNS

>  <TGI>
86.9 µM

$$$$
>  <Molecule>
Cc1c(C(=O)/C=C/c2ccco2)[n+](=O)c2ccccc2n1[O-]

>  <Target or system>
SNB-19 CNS

>  <TGI>
> 100 µM

$$$$
>  <Molecule>
CCN1CCC(C(=O)Nc2n[nH]c3nnc(-c4cccc(F)c4F)cc23)CC1

>  <Target or system>
SNB-19 CNS

>  <TGI>
> 25 µM

$$$$
>  <Molecule>
COc1c2occc2c(OC)c2c(=O)c(S(=O)(=O)NC(=O)Nc3ccc(Cl)cc3)coc12

>  <Target or system>
SNB-19 CNS

>  <TGI>
> 10 µM

$$$$
>  <Molecule>
O=C(NCC1Nc2ccncc2S(=O)(=O)N1)c1ccc(Br)cc1 (stereo unspecified)

>  <Target or system>
SNB-19 CNS

>  <TGI>
> 100 µM

$$$$
>  <Molecule>
[N-]=[N+]=Nc1ccc(S(=O)(=O)Oc2cc(OS(=O)(=O)c3ccc(N=[N+]=[N-])cc3)cc(OS(=O)(=O)c3ccc(N=[N+]=[N-])cc3)c2)cc1

>  <Target or system>
SNB-19 CNS

>  <TGI>
> 10 µM

$$$$
>  <Molecule>
CCNc1nc(N)c(C(=O)c2ccc(Cl)cc2)s1

>  <Target or system>
SNB-19 CNS

>  <TGI>
58.8 µM

$$$$
